Data provenance: ChEMBL document CHEMBL4014348

# TARGET OF ASSAY: Voltage-gated inwardly rectifying potassium channel KCNH2 (Homo sapiens, UniProt Q12809)
# Sequence (Q12809 whole entry): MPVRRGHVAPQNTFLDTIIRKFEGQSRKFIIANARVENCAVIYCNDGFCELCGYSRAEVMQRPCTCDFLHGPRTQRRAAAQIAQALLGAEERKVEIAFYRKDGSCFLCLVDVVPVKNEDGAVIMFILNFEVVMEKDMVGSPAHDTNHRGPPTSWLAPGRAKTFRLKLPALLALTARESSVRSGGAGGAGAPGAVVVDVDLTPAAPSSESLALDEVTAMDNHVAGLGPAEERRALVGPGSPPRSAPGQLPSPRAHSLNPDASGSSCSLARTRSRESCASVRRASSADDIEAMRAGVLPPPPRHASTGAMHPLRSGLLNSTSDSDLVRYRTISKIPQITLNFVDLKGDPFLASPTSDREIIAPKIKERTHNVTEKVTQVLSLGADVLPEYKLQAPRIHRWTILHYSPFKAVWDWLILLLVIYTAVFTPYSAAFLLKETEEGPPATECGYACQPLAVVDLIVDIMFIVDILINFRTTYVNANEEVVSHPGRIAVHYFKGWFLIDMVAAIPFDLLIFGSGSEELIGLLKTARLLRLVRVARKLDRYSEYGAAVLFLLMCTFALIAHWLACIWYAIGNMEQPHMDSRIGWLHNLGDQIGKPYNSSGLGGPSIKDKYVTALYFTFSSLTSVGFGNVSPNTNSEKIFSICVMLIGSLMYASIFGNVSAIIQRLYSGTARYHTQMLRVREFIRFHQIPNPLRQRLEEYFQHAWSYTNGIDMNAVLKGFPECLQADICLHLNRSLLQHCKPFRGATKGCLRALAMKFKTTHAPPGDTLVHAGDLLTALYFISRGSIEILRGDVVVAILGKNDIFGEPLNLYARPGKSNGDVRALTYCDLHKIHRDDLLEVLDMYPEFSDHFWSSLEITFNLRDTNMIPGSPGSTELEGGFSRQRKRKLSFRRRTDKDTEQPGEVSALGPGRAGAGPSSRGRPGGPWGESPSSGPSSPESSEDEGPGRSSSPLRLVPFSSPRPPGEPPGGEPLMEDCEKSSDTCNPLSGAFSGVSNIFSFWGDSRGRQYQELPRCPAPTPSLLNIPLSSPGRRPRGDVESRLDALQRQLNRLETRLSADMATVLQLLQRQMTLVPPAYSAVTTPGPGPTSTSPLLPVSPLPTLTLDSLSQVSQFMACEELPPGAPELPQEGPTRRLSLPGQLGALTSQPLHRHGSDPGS
QUANTITY KIND: pIC50
Give bare numbers, as −log10 of the molar value.

Q: # get_value(readout='pIC50', item= O=C(CCCCCN1C(=O)c2ccccc2N(Cc2ccccc2)C(=O)[C@@H]1Cc1ccccc1)NO )
Ans: 5.65

* * *

# TARGET OF ASSAY: Histone deacetylase 2 (Homo sapiens, UniProt Q92769)
# Sequence (Q92769 whole entry): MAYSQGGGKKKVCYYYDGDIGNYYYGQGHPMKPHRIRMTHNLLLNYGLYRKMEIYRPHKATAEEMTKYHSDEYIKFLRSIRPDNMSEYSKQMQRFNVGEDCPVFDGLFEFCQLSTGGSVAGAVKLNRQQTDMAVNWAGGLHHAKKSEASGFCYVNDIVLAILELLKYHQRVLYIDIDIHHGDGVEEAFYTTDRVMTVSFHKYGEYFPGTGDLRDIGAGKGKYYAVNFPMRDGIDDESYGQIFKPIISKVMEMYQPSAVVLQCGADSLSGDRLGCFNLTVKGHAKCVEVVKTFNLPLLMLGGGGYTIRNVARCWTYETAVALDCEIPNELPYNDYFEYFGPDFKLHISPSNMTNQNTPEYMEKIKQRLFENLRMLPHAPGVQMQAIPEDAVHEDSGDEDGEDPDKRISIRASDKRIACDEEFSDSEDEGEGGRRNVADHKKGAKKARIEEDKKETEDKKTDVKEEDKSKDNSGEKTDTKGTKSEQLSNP
# EXPERIMENT DESCRIPTION: Inhibition of full length human recombinant C-terminal FLAG-tagged HDAC2 expressed in baculovirus infected Sf9 insect cells using Boc-Lys(epsilon-Ac)-AMC as substrate measured after 90 mins by fluorescence assay
Exercise: for every item that follows, state its recorded IC50.
Give bare numbers, in nM.

Reference set, count: 3
Cc1ccc(NC(=O)CN(CCCCCC(=O)NO)C(=O)c2ccc(N(C)C)cc2)cc1 | 146
CN(C)c1ccc(C(=O)N(CCCCCC(=O)NO)CC(=O)NCc2ccccc2)cc1 | 66
Cc1cc(C)cc(C(=O)N(CCCCCC(=O)NO)CC(=O)NCc2ccccc2)c1 | 61

Q: # get_value(readout='IC50', item= Cc1cc(C)cc(C(=O)N(CCCCCC(=O)NO)CC(=O)NC2CCCCC2)c1 )
Ans: 84

* * *

# TARGET OF ASSAY: Histone deacetylase 1/2/3/6 (Homo sapiens, UniProt Q13547+O15379+Q9UBN7+Q92769)
# EXPERIMENT DESCRIPTION: Inhibition of HDAC1/2/3/6 in human Cal27 cells using Boc-Lys(epsilon-Ac)-AMC as substrate preincubated for 18 hrs followed by substrate addition measured after 3 hrs by fluorescence assay
# Format: cell-based
QUANTITY KIND: IC50 (nM)
Numbers only, in nM.

Reference set, count: 4
CC(C)CNC(=O)CN(CCCCCC(=O)NO)C(=O)c1ccc(N(C)C)cc1 | 870
CC(C)(C(=O)NC1CCCCC1)N(CCCCCC(=O)NO)C(=O)c1ccccc1 | 26200
Cc1cc(C)cc(C(=O)N(CCCCCC(=O)NO)CC(=O)NCc2ccccc2)c1 | 370
Cc1ccc(NC(=O)CN(CCCCCC(=O)NO)C(=O)c2ccc(N(C)C)cc2)cc1 | 370

Required: IC50, one value per molecule below.
1. O=C(CCCCCN(CC(=O)NC1CCCCC1)C(=O)c1ccccc1)NO
2. Cc1ccc(NC(=O)CN(CCCCCC(=O)NO)C(=O)c2cc(C)cc(C)c2)cc1
3. CC(C)(C)NC(=O)C(C)(C)N(CCCCCC(=O)NO)C(=O)c1ccccc1

Ans:
1. 1340
2. 950
3. 92500

* * *

# TARGET OF ASSAY: Histone deacetylase 1/2/3/6 (Homo sapiens, UniProt Q13547+O15379+Q9UBN7+Q92769)
# EXPERIMENT DESCRIPTION: Inhibition of HDAC1/2/3/6 in human A2780 cells using Boc-Lys(epsilon-Ac)-AMC as substrate preincubated for 18 hrs followed by substrate addition measured after 3 hrs by fluorescence assay
# Assay type: cell-based
Labelling field: enter class 1 if recorded IC50 is less than 9000 nM. Enter class 0 if it equals or exceeds that cut-off.

Reference set (3 entries):
CC(C)(C(=O)NC1CCCCC1)N(CCCCCC(=O)NO)C(=O)c1ccccc1 | class 0
Cc1ccc(C(C(=O)NC2CCCCC2)N(CCCCCC(=O)NO)C(=O)c2ccccc2)cc1 (stereo not given) | class 1
Cc1cc(C)cc(C(=O)N(CCCCCC(=O)NO)CC(=O)NC2CCCCC2)c1 | class 1

Q: Please check: IC50 for CC(C)(C)NC(=O)C(C)(C)N(CCCCCC(=O)NO)C(=O)c1ccccc1 , strictly under 9000 nM or not?
Ans: class 0
